All values here come from paper PMC4447944.

Target: hSTK39 (Homo sapiens, UniProt Q9UEW8)
pIC50: −log10 of the molar value.
Measurement Kind: pIC50

Fill in the recorded pIC50 for this compound, with hSTK39 (Homo sapiens, UniProt Q9UEW8) as test system: Cc1cn(CCN2CCN(c3ccccc3-c3cc(C#N)cc(C(=O)NCCCN4CCCC4)c3)CC2)c2ccccc12
< 4.70

====

Biological target: hRSK2(Kin.Dom.2-C-term) (Homo sapiens, UniProt P51812)
Sequence (P51812 422-679 limits assumed): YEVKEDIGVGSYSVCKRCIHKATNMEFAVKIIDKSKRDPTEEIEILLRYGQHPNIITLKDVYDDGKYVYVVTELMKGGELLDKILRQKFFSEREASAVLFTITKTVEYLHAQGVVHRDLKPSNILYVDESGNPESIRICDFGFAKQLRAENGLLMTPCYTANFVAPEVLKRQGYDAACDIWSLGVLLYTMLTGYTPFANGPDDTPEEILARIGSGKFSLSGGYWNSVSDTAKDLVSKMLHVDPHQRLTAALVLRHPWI
Measurement Kind: IC50

Fill in the recorded IC50 for this compound, with hRSK2(Kin.Dom.2-C-term) (Homo sapiens, UniProt P51812) as test system: Cc1cn(CCN2CCN(c3ccccc3-c3cc(C#N)cc(C(=O)NCCCN4CCCC4)c3)CC2)c2ccccc12
> 20 µM

====

Target: hRET (Homo sapiens)
Sequence (P07949 29-1114): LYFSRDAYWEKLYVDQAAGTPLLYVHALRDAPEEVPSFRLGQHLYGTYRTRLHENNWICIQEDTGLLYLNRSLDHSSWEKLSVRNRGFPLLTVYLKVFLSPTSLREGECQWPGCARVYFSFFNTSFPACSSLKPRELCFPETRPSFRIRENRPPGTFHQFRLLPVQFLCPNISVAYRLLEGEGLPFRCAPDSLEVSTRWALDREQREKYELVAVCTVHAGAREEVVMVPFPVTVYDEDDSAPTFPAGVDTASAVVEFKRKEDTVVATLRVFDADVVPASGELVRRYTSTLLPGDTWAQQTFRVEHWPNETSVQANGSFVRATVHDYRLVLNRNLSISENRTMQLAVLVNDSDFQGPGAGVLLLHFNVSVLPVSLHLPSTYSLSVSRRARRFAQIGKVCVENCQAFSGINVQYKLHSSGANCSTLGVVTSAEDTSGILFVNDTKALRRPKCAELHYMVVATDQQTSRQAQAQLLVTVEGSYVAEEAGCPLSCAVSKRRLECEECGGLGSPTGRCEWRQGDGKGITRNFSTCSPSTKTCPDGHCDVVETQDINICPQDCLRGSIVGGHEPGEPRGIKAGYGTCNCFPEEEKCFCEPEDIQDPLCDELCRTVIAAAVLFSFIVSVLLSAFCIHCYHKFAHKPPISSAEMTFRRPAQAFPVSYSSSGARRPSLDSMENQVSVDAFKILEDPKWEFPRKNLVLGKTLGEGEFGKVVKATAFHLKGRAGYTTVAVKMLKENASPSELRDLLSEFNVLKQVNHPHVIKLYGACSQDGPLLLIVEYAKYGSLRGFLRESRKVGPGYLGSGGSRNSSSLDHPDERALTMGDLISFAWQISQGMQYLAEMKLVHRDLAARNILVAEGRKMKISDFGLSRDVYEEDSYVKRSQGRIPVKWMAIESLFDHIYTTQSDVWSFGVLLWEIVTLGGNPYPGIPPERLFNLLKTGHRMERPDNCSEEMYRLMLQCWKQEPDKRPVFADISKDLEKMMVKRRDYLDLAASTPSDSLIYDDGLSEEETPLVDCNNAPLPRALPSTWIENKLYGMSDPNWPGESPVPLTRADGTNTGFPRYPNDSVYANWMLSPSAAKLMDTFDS
Measurement Kind: IC50

For the compound Cc1cn(CCN2CCN(c3ccccc3-c3cc(C#N)cc(C(=O)NCCCN4CCCC4)c3)CC2)c2ccccc12 , what IC50 is on record?
> 20 µM

====

Target: hALK (Homo sapiens)
Sequence (Q9UM73 19-1620): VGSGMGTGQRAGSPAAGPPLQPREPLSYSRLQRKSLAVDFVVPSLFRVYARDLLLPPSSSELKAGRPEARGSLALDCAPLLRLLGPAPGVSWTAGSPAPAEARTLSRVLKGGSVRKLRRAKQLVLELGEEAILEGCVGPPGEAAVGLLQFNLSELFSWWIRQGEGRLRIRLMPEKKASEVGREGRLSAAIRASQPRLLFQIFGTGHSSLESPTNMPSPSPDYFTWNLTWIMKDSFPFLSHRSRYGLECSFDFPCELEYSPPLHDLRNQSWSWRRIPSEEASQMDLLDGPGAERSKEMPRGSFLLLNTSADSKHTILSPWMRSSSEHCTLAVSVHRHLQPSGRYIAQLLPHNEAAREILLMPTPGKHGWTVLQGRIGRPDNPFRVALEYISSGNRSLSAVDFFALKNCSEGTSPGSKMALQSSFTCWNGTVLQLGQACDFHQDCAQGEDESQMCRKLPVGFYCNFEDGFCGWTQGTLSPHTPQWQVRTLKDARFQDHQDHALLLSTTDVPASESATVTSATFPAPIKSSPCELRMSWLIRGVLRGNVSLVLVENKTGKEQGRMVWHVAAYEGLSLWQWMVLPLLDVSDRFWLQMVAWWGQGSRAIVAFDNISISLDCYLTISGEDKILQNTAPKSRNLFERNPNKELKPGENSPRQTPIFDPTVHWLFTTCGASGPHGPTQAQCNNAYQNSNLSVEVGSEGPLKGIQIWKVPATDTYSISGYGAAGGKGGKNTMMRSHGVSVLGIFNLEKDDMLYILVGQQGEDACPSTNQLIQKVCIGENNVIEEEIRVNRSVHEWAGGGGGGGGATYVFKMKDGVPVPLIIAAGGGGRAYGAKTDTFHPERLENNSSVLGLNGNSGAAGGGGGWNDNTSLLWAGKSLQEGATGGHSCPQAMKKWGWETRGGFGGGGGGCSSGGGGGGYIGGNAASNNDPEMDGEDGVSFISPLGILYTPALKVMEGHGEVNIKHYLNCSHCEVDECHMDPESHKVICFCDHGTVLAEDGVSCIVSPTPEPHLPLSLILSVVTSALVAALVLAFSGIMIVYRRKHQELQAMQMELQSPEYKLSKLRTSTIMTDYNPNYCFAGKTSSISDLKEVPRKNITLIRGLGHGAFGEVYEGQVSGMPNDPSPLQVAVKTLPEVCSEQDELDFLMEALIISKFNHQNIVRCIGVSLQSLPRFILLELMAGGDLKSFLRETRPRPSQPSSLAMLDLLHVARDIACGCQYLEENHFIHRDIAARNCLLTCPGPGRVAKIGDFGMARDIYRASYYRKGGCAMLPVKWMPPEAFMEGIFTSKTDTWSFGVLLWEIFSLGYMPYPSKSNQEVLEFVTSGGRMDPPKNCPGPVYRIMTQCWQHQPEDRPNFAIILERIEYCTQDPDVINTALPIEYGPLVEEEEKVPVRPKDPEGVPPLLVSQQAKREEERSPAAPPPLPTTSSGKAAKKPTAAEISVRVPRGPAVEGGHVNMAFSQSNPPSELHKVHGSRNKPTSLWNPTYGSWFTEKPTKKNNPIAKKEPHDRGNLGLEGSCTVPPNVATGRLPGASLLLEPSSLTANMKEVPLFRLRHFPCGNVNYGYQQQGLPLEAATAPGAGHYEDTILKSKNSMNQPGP
pIC50: −log10 of the molar value.
Measurement Kind: pIC50

Fill in the recorded pIC50 for this compound, with hALK (Homo sapiens) as test system: Cc1cn(CCN2CCN(c3ccccc3-c3cc(C#N)cc(C(=O)NCCCN4CCCC4)c3)CC2)c2ccccc12 [LLY-507]
< 4.70

====

Molecular target: hIRAK3 (Homo sapiens)
Sequence (Q9Y616 whole entry): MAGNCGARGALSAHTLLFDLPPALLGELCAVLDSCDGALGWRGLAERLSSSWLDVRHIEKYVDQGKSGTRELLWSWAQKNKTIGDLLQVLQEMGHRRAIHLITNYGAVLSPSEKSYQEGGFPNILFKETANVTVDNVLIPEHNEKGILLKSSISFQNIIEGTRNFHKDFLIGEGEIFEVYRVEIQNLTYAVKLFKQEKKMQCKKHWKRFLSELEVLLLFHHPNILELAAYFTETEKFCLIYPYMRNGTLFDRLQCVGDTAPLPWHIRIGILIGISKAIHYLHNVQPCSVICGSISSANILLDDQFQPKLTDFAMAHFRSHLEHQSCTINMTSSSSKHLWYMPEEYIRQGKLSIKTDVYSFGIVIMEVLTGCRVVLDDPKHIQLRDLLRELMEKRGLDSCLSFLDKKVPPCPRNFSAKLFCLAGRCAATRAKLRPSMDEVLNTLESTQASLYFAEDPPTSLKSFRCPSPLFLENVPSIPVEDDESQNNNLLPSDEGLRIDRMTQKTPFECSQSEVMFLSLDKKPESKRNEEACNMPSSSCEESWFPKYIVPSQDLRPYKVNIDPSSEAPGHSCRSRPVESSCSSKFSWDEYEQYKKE
Measurement Kind: IC50

For the compound Cc1cn(CCN2CCN(c3ccccc3-c3cc(C#N)cc(C(=O)NCCCN4CCCC4)c3)CC2)c2ccccc12 [LLY-507] , what IC50 is on record?
> 20 µM

====

Molecular target: hMERTK (Homo sapiens)
Sequence (Q12866 21-999): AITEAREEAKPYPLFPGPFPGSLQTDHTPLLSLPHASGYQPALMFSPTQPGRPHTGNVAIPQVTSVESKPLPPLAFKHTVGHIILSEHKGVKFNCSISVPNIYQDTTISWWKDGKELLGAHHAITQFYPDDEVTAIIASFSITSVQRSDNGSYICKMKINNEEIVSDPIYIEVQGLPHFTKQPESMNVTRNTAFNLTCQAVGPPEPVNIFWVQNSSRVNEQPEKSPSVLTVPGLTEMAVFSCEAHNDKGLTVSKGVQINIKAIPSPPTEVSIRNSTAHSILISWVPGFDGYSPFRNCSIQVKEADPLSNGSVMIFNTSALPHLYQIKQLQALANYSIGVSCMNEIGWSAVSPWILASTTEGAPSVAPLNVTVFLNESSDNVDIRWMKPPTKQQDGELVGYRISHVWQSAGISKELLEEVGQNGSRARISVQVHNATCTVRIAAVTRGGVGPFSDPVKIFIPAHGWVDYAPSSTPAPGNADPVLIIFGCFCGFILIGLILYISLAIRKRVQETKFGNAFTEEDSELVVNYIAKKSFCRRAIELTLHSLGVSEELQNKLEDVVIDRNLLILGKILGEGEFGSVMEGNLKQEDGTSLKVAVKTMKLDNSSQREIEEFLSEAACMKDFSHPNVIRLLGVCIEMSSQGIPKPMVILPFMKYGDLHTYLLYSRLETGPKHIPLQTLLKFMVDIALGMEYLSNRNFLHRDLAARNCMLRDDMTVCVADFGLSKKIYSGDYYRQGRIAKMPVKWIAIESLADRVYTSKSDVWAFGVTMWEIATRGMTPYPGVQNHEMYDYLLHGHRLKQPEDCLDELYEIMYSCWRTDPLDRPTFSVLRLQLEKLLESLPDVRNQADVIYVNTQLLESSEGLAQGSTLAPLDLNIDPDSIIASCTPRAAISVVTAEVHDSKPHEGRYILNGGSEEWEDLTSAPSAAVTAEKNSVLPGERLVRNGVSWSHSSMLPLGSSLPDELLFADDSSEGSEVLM
pIC50: −log10 of the molar value.
Measurement Kind: pIC50

For the compound Cc1cn(CCN2CCN(c3ccccc3-c3cc(C#N)cc(C(=O)NCCCN4CCCC4)c3)CC2)c2ccccc12 , what pIC50 is on record?
< 4.70
